Each entry below carries its reported growth.
# System: K-562 leukemia
# experimental_protocol: NCI-60 one-dose screen, 48 h (100 = growth as untreated, 0 = no growth, -100 = all killed)
# conditions: 10 µM unless noted
About 83,000 compounds went through this panel and 20% of them were active in at least one assay; those are over-represented in the sample as a whole.
reported_endpoint: growth (%)

- chemical_smiles: "Brc1ccc(-c2nn(-c3ccccc3)cc2-c2nn[nH]n2)s1"
  quantitative_result: 87.2
- chemical_smiles: "CCN1CCN(c2nc(NNC(=O)c3ccc(OC)cc3)nc(N3CCN(C(c4ccccc4)c4ccccc4)CC3)n2)CC1"
  quantitative_result: 14
- chemical_smiles: "COc1cc(NC(=O)c2cncnc2Nc2ccc3c(ccn3Cc3cccc(F)c3)c2)cc(OC)c1"
  quantitative_result: 15.4

====

# System: U251 CNS
# experimental_protocol: NCI-60 one-dose screen, 48 h (100 = growth as untreated, 0 = no growth, -100 = all killed)
# conditions: 10 µM unless noted
Compounds without any hit were thinned out: in the full panel of roughly 83,000, 20% have a hit.
# growth annotations
reported_endpoint: growth (%)

- compound: "COc1cccc(/C=C/C(=O)/C=C(/C=C/c2cccc(OC)c2OC)OB(F)F)c1OC"
  quantitative_result: 36.4
- compound: "CCN1C(=O)N(CC)C2C1NN=c1s/c(=C\\c3ccc(F)cc3)c(=O)n12 (configuration not stated)"
  quantitative_result: 9.98
- compound: "CC(=O)Oc1ccccc1C(=O)N(Cc1ccc2c(Cl)cc(Cl)c(O)c2n1)c1ccccc1"
  quantitative_result: 27.6
- compound: "C=C(C)[C@@H]1CC[C@]2(C#N)CC[C@]3(C)[C@H](CC[C@@H]4[C@@]5(C)CCCNC(C)(C)[C@@H]5CC[C@]43C)[C@@H]12"
  quantitative_result: 16.7
- compound: "Cn1cc(-c2nc(-c3c[nH]c4c(Cl)nccc34)cs2)c2ccccc21"
  quantitative_result: 86.3
- compound: "NS(=O)(=O)Oc1cccc(-c2nc3sccn3c2-c2ccccc2)c1"
  quantitative_result: 36.3
- compound: "CC(C)(C)CC(C)(C)Nc1c(-c2c(O)c3ccccc3oc2=O)nc2sccn12"
  quantitative_result: 97.7
- compound: "COc1ccccc1-c1nc2ccc3[nH]ncc3c2c2c1CCCC2"
  quantitative_result: 96.7
- compound: "CCOC(=O)c1cnc2sc(-c3ccc(OC)cc3)nc2c1Cl"
  quantitative_result: 103
- compound: "O=C(Nc1ccccc1)Nc1ccccc1CNc1nc(Nc2ccc(OCCN3CCCC3)cc2)ncc1Cl"
  quantitative_result: 38.7
- compound: "O=C(Nc1ccccc1CNc1nc(Nc2ccc(OCCN3CCCC3)cc2)ncc1Cl)NC1CCCCC1"
  quantitative_result: 70.4
- compound: "[2H]C([2H])([2H])Oc1ccc(/C=C/C(=O)/C=C(O)/C=C/c2ccc(OC([2H])([2H])[2H])c(OC([2H])([2H])[2H])c2)cc1OC([2H])([2H])[2H]"
  quantitative_result: 19.5

====

# Test system: TK-10 renal
# experimental_protocol: NCI-60 one-dose screen, 48 h
# conditions: 10 µM unless noted
Compounds without any hit were thinned out: in the full panel of roughly 83,000, 20% have a hit. Active and inactive are the calls of the source. Rule for the calls: active = growth percent below 10; inactive = the rest.
Possible outcomes: yes = active, no = inactive

- compound: "CCN(CC)CCCNc1cc(OC)cc2cccnc12"
  system_name: "TK-10 renal"
  assigned_category: "no"
- compound: "CO[C@H]1CC(c2ccc[nH]2)=N[C@]12O[C@@H](C)C[C@@H]1CCCCCCCc3ccc([nH]3)[C@H]12"
  system_name: "TK-10 renal"
  assigned_category: "no"
- compound: "NCCNc1ccc([N+](=O)[O-])cc1"
  system_name: "TK-10 renal"
  assigned_category: "no"
- compound: "CC(C)n1nc(-c2ccc3oc(N)nc3c2)c2c(N)ncnc21"
  system_name: "TK-10 renal"
  assigned_category: "yes"
- compound: "Cc1c(CC(=O)Nc2ccccc2)nnn1-c1ccccc1"
  system_name: "TK-10 renal"
  assigned_category: "no"
- compound: "CCn1c2ccccc2c2cc(C(O)c3cccc4ncccc34)ccc21 (stereo not drawn)"
  system_name: "TK-10 renal"
  assigned_category: "no"
- compound: "COc1cc(NC(=O)c2cncnc2Nc2ccc3c(ccn3Cc3cccc(F)c3)c2)cc(OC)c1"
  system_name: "TK-10 renal"
  assigned_category: "no"
- compound: "O=C(OCc1ccc2c(Br)cc(Br)c(O)c2n1)N1CCN(C(=O)c2cc3ccccc3[nH]2)CC1"
  system_name: "TK-10 renal"
  assigned_category: "no"
- compound: "COc1ccc(Cn2cc(C(=O)N=Nc3c(O)[nH]c4ccc(Br)cc34)nn2)cc1"
  system_name: "TK-10 renal"
  assigned_category: "no"
- compound: "CCOC(=O)c1c(Nc2nc3ccccc3s2)sc2c1CCC(=O)C2"
  system_name: "TK-10 renal"
  assigned_category: "no"
- compound: "N#CC1=C(N)Oc2c(ccc3cccnc23)C1c1ccccc1 (stereo not drawn)"
  system_name: "TK-10 renal"
  assigned_category: "no"
- compound: "Cc1ccc(S(=O)(=O)N(CCC(=O)O)c2ccccc2)cc1"
  system_name: "TK-10 renal"
  assigned_category: "no"
- compound: "Cc1nn(C)c2ncnc(Nc3ccccc3Br)c12"
  system_name: "TK-10 renal"
  assigned_category: "no"
